Reference for the values: the supplement of paper PMC11246515

Can you tell me total protein half-life in vivo for the items I'm about to list?
# procedure details: total protein half-life in vivo (active degradation + dilution); higher = more stable protein
# test conditions: wild type E. coli NCM3722; growth: C-lim chemostat; doubling time 6 h
Numbers only, in h.

A selection of reference data follows.
Query: Report total protein half-life in vivo for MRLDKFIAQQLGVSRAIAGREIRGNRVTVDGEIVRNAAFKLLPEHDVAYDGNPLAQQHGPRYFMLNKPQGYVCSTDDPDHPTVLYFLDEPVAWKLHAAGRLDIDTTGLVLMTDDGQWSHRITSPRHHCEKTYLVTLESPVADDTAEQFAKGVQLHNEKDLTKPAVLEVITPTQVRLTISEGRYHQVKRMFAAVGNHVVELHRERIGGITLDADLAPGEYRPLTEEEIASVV [P0AA43] please.
Response: 4.74

Query: Next: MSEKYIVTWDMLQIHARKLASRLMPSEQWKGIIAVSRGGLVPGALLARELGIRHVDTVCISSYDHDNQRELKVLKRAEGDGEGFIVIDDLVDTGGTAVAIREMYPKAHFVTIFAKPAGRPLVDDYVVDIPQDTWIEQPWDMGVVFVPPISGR [P0A9M5]
Response: 5.55

Query: Next: MSQPLNADQELVSDVVACQLVIKQILDVLDVIAPVEVREKMSSQLKNIDFTNHPAAADPVTMRAIQKAIALIELKFTPQGESH [P0AD10]
Response: 4.53

Query: Next: MIVLPRRLSDEVADRVRALIDEKNLEAGMKLPAERQLAMQLGVSRNSLREALAKLVSEGVLLSRRGGGTFIRWRHDTWSEQNIVQPLKTLMADDPDYSFDILEARYAIEASTAWHAAMRATPGDKEKIQLCFEATLSEDPDIASQADVRFHLAIAEASHNIVLLQTMRGFFDVLQSSVKHSRQRMYLVPPVFSQLTEQHQAVIDAIFAGDADGARKAMMAHLSFVHTTMKRFDEDQARHARITRLPGEHNEHSREKNA [P0ACL7]
Response: 2.86

Query: Next: `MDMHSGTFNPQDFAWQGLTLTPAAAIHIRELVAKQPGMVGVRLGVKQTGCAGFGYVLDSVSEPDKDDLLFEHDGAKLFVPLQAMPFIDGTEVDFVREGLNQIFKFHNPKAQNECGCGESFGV`
Response: 3.99

State the recorded total protein half-life in vivo for every item in the following list.
1. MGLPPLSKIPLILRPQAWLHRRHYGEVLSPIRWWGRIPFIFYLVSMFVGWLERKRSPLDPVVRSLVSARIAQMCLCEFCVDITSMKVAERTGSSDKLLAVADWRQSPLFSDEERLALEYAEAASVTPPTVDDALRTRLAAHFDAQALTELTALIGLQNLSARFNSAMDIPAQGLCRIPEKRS
2. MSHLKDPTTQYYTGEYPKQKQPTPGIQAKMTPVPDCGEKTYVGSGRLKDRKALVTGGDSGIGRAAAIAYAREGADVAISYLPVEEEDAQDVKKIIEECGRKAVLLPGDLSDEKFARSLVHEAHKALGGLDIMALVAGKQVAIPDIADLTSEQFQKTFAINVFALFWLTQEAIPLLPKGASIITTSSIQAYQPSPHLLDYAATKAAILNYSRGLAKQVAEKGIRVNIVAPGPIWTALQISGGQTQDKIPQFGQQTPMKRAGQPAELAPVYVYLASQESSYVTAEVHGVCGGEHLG [P0AG84]

Response:
1: 5.52; 2: 6.3
